- assay-notes: In vivo PK studies in mice
- Set-up: species or system Male Balb/C mice
- condition-parameters: male, Balb/C, mouse, plasma, IV 2 mg/kg, read-out: CMax IV
Structures can show the parent of a compound that is named as a salt.
Measured Cmax of individual entries
Your answer should be a number followed by the unit of measure.

Examples with answers:
Challenge: # Cmax lookup, item O=C(NO)c1ccc(CCCN2CCC(CNC3CC3c3ccc(-c4ccc(F)cc4)cc3)CC2)cc1 (stereo not drawn) [Example 57, TFA Salt]
Response given: 254 ng/mL

Challenge: Query: Cmax; subject: Cn1cc(-c2ccc(C3CC3NCC3CCN(Cc4ccc(C(=O)Nc5ccccc5N)cc4)CC3)cc2)cn1 (stereo not drawn) [Example 142, TFA Salt]
Response given: 150 ng/mL

Here's the next entry for you.
Challenge: Data request, read-out Cmax, for O=C(NO)c1ccc(/C=C/C(=O)N2CCC(CN[C@@H]3C[C@H]3c3ccc(F)cc3)CC2)cc1 [Example 115A, TFA Salt]
Response given: 452 ng/mL
